Recorded values, source patent US20260226086A1.

System: SUP-M2 cells
Assay: CellTiter-Glo 2.0 cell viability assay, SUP-M2
Assay type: cell-based
Conditions: SUP-M2, 96 h, 4 days
Could you please report measured IC50 for the items listed next?

# annotated cases, reported IC50 shown
smiles-str	experimental-result
Cc1ncsc1-c1ccc([C@H](C)NC(=O)[C@@H]2C[C@@H](O)CN2C(=O)[C@@H](NC(=O)CC(=O)N2CC[C@H]3CC[C@@H](C(=O)N[C@@H](CCC(N)=O)C(=O)NC(c4ccccc4)c4ccccc4)N3C(=O)[C@@H](NC(=O)c3cc4cc(C(=O)P(=O)(O)O)ccc4[nH]3)C2)C(C)(C)C)cc1	> 1000 nM
Cc1ncsc1-c1ccc([C@H](C)NC(=O)[C@@H]2C[C@@H](O)CN2C(=O)[C@@H](n2cc(CC(=O)N3CC[C@H]4CC[C@@H](C(=O)N[C@@H](CCC(N)=O)C(=O)NC(c5ccccc5)c5ccccc5)N4C(=O)[C@@H](NC(=O)c4cc5cc(C(=O)P(=O)(O)O)ccc5[nH]4)C3)nn2)C(C)(C)C)cc1	> 1000 nM

Next item in the queue.
Any idea what its IC50 is? The compound is CC(=O)N1CC[C@H]2CC[C@@H](C(=O)N[C@@H](CCC(N)=O)COc3cccc(CCCc4cn([C@H](C(=O)N5C[C@H](O)C[C@H]5C(=O)N[C@@H](CN5CCOCC5)c5ccc(-c6scnc6C)cc5)C(C)(C)C)nn4)c3Cl)N2C(=O)[C@@H](NC(=O)c2cc3cc(C(=O)P(=O)(O)O)ccc3[nH]2)C1 10 to 100 nM

====

Tested on: SUP-M2 cells
Assay: CellTiter-Glo 2.0 cell viability assay, SUP-M2
Format: cell-based
Details: SUP-M2, 96 h, 4 days
pIC50: −log10 of the molar value.
recorded-metric: pIC50

# annotated cases, reported pIC50 shown
smiles-str	experimental-result
Cc1ncsc1-c1ccc([C@H](C)NC(=O)[C@@H]2C[C@@H](O)CN2C(=O)[C@@H](n2cc(CCC(=O)N3CC[C@H]4CC[C@@H](C(=O)N[C@@H](CCC(N)=O)C(=O)NCc5cccc(Cl)c5)N4C(=O)[C@@H](NC(=O)c4cc5cc(C(=O)P(=O)(O)O)ccc5[nH]4)C3)nn2)C(C)(C)C)cc1	7.00 to 8.00
CCS(=O)(=O)c1ccc(CNC(=O)[C@H](CCC(N)=O)NC(=O)[C@@H]2CC[C@@H]3CCN(C(=O)CCCCCc4cn([C@H](C(=O)N5C[C@H](O)C[C@H]5C(=O)N[C@@H](COCCOCCOC)c5ccc(-c6scnc6C)cc5)C(C)(C)C)nn4)C[C@H](NC(=O)c4cc5cc(C(=O)P(=O)(O)O)ccc5[nH]4)C(=O)N32)cc1	7.00 to 8.00
Cc1ncsc1-c1ccc([C@H](C)NC(=O)[C@@H]2C[C@@H](O)CN2C(=O)[C@@H](NC(=O)CCCCCC(=O)N2CC[C@H]3CC[C@@H](C(=O)N[C@@H](CCC(N)=O)C(=O)NC(c4ccccc4)c4ccccc4)N3C(=O)[C@@H](NC(=O)c3cc4cc(C(=O)P(=O)(O)O)ccc4[nH]3)C2)C(C)(C)C)cc1	7.00 to 8.00
Cc1ncsc1-c1ccc([C@H](C)NC(=O)[C@@H]2C[C@@H](O)CN2C(=O)[C@@H](n2cc(CCCc3cccc(OC[C@H](CCC(N)=O)NC(=O)[C@@H]4CC[C@@H]5CCN(C(=O)CCN6CCN(C)CC6)C[C@H](NC(=O)c6cc7cc(C(=O)P(=O)(O)O)ccc7[nH]6)C(=O)N54)c3Cl)nn2)C(C)(C)C)cc1	6.00 to 7.00

Any idea what its pIC50 is? The molecule is Cc1ncsc1-c1ccc([C@H](C)NC(=O)[C@@H]2C[C@@H](O)CN2C(=O)[C@@H](n2cc(CCCCCCCC(=O)N3CC[C@H]4CC[C@@H](C(=O)N[C@@H](CCC(N)=O)C(=O)NC(c5ccccc5)c5ccccc5)N4C(=O)[C@@H](NC(=O)c4cc5cc(C(=O)P(=O)(O)O)ccc5[nH]4)C3)nn2)C(C)(C)C)cc1 < 6.00
